Here, compounds appear alongside IC50 reported for PASK (Invitrogen) (Homo sapiens) in the literature.

Field: example entries. Status: answers known.
>  <compound>
Nc1nn2c(=O)cc(-c3cc4ccccc4o3)[nH]c2c1-c1ccccn1

>  <target>
PASK (Invitrogen) (Homo sapiens)

>  <IC50>
≤ 10 µM

$$$$
>  <compound>
CC(C)N(C)c1nc2cc(C(=O)O)ccc2nc1-c1ccc(F)cc1F

>  <target>
PASK (Invitrogen) (Homo sapiens)

>  <IC50>
< 10 µM

$$$$
>  <compound>
CCn1ncc2cc(-c3cc(=O)n4nc(C)c(-c5nc(C)co5)c4[nH]3)ccc21

>  <target>
PASK (Invitrogen) (Homo sapiens)

>  <IC50>
≤ 10 µM

$$$$

Note: attention shifts to another entry.
Item under review: Cc1n[nH]c2ccc(-c3cc(=O)n4ncc(-c5ccccn5)c4[nH]3)cc12 . Reported IC50? ≤ 10 µM
